# conditionParameters: in ethanol, 293.15 K
propertyName: solubility (mole fraction)

chemicalSmiles: CC1(C)COP(=O)(Oc2cc(OP3(=O)OCC(C)(C)CO3)cc(OP3(=O)OCC(C)(C)CO3)c2)OC1
recordedResult: 9.43e-05

* * *

# conditionParameters: in THF, 288.15 K
propertyName: solubility (mole fraction)

chemicalSmiles: CC1(C)COP(=O)(Oc2cc(OP3(=O)OCC(C)(C)CO3)cc(OP3(=O)OCC(C)(C)CO3)c2)OC1
recordedResult: 0.000132

* * *

# conditionParameters: in acetonitrile, 313.15 K

chemicalSmiles: CC1(C)COP(=O)(Oc2cc(OP3(=O)OCC(C)(C)CO3)cc(OP3(=O)OCC(C)(C)CO3)c2)OC1
solubility (mole fraction): 0.00238

* * *

# conditionParameters: in ethanol, 308.15 K

chemicalSmiles: CC1(C)COP(=O)(Oc2cc(OP3(=O)OCC(C)(C)CO3)cc(OP3(=O)OCC(C)(C)CO3)c2)OC1
solubility (mole fraction): 0.000156

* * *

# conditionParameters: in 1,4-dioxane, 288.15 K
propertyName: solubility (mole fraction)

chemicalSmiles: CC1(C)COP(=O)(Oc2cc(OP3(=O)OCC(C)(C)CO3)cc(OP3(=O)OCC(C)(C)CO3)c2)OC1
recordedResult: 8.73e-05

* * *

# conditionParameters: in methanol, 298.15 K

chemicalSmiles: CC1(C)COP(=O)(Oc2cc(OP3(=O)OCC(C)(C)CO3)cc(OP3(=O)OCC(C)(C)CO3)c2)OC1
solubility (mole fraction): 0.000568

* * *

# conditionParameters: in acetone, 303.15 K

chemicalSmiles: CC1(C)COP(=O)(Oc2cc(OP3(=O)OCC(C)(C)CO3)cc(OP3(=O)OCC(C)(C)CO3)c2)OC1
solubility (mole fraction): 0.000638

* * *

# conditionParameters: in acetonitrile, 293.15 K

chemicalSmiles: CC1(C)COP(=O)(Oc2cc(OP3(=O)OCC(C)(C)CO3)cc(OP3(=O)OCC(C)(C)CO3)c2)OC1
solubility (mole fraction): 0.00109

* * *

# conditionParameters: in THF, 313.15 K
propertyName: solubility (mole fraction)

chemicalSmiles: CC1(C)COP(=O)(Oc2cc(OP3(=O)OCC(C)(C)CO3)cc(OP3(=O)OCC(C)(C)CO3)c2)OC1
recordedResult: 0.000158

* * *

# conditionParameters: in methanol, 303.15 K
propertyName: solubility (mole fraction)

chemicalSmiles: CC1(C)COP(=O)(Oc2cc(OP3(=O)OCC(C)(C)CO3)cc(OP3(=O)OCC(C)(C)CO3)c2)OC1
recordedResult: 0.000648

* * *

# conditionParameters: in ethanol, 313.15 K
propertyName: solubility (mole fraction)

chemicalSmiles: CC1(C)COP(=O)(Oc2cc(OP3(=O)OCC(C)(C)CO3)cc(OP3(=O)OCC(C)(C)CO3)c2)OC1
propertyName: solubility (mole fraction)
recordedResult: 0.000192

* * *

# conditionParameters: in dichloromethane, 293.15 K

chemicalSmiles: CC1(C)COP(=O)(Oc2cc(OP3(=O)OCC(C)(C)CO3)cc(OP3(=O)OCC(C)(C)CO3)c2)OC1
solubility (mole fraction): 0.00589

* * *

# conditionParameters: in ethanol, 318.15 K

chemicalSmiles: CC1(C)COP(=O)(Oc2cc(OP3(=O)OCC(C)(C)CO3)cc(OP3(=O)OCC(C)(C)CO3)c2)OC1
solubility (mole fraction): 0.000225

* * *

# conditionParameters: in dichloromethane, 308.15 K
propertyName: solubility (mole fraction)

chemicalSmiles: CC1(C)COP(=O)(Oc2cc(OP3(=O)OCC(C)(C)CO3)cc(OP3(=O)OCC(C)(C)CO3)c2)OC1
propertyName: solubility (mole fraction)
recordedResult: 0.00891

* * *

# conditionParameters: in acetonitrile, 298.15 K

chemicalSmiles: CC1(C)COP(=O)(Oc2cc(OP3(=O)OCC(C)(C)CO3)cc(OP3(=O)OCC(C)(C)CO3)c2)OC1
solubility (mole fraction): 0.00136

* * *

# conditionParameters: in 1,4-dioxane, 308.15 K

chemicalSmiles: CC1(C)COP(=O)(Oc2cc(OP3(=O)OCC(C)(C)CO3)cc(OP3(=O)OCC(C)(C)CO3)c2)OC1
solubility (mole fraction): 0.000139

* * *

# conditionParameters: in THF, 308.15 K

chemicalSmiles: CC1(C)COP(=O)(Oc2cc(OP3(=O)OCC(C)(C)CO3)cc(OP3(=O)OCC(C)(C)CO3)c2)OC1
solubility (mole fraction): 0.000154

* * *

# conditionParameters: in 1,4-dioxane, 298.15 K

chemicalSmiles: CC1(C)COP(=O)(Oc2cc(OP3(=O)OCC(C)(C)CO3)cc(OP3(=O)OCC(C)(C)CO3)c2)OC1
solubility (mole fraction): 0.00011

* * *

# conditionParameters: in THF, 293.15 K

chemicalSmiles: CC1(C)COP(=O)(Oc2cc(OP3(=O)OCC(C)(C)CO3)cc(OP3(=O)OCC(C)(C)CO3)c2)OC1
solubility (mole fraction): 0.000138

* * *

# conditionParameters: in methanol, 318.15 K

chemicalSmiles: CC1(C)COP(=O)(Oc2cc(OP3(=O)OCC(C)(C)CO3)cc(OP3(=O)OCC(C)(C)CO3)c2)OC1
solubility (mole fraction): 0.000975

* * *

# conditionParameters: in chloroform, 308.15 K

chemicalSmiles: CC1(C)COP(=O)(Oc2cc(OP3(=O)OCC(C)(C)CO3)cc(OP3(=O)OCC(C)(C)CO3)c2)OC1
solubility (mole fraction): 0.00921

* * *

# conditionParameters: in acetonitrile, 318.15 K
propertyName: solubility (mole fraction)

chemicalSmiles: CC1(C)COP(=O)(Oc2cc(OP3(=O)OCC(C)(C)CO3)cc(OP3(=O)OCC(C)(C)CO3)c2)OC1
recordedResult: 0.00289

* * *

# conditionParameters: in 1,4-dioxane, 293.15 K

chemicalSmiles: CC1(C)COP(=O)(Oc2cc(OP3(=O)OCC(C)(C)CO3)cc(OP3(=O)OCC(C)(C)CO3)c2)OC1
solubility (mole fraction): 9.57e-05

* * *

# conditionParameters: in methanol, 313.15 K

chemicalSmiles: CC1(C)COP(=O)(Oc2cc(OP3(=O)OCC(C)(C)CO3)cc(OP3(=O)OCC(C)(C)CO3)c2)OC1
solubility (mole fraction): 0.000874

* * *

# conditionParameters: in acetonitrile, 308.15 K

chemicalSmiles: CC1(C)COP(=O)(Oc2cc(OP3(=O)OCC(C)(C)CO3)cc(OP3(=O)OCC(C)(C)CO3)c2)OC1
solubility (mole fraction): 0.00195

* * *

# conditionParameters: in ethanol, 298.15 K

chemicalSmiles: CC1(C)COP(=O)(Oc2cc(OP3(=O)OCC(C)(C)CO3)cc(OP3(=O)OCC(C)(C)CO3)c2)OC1
solubility (mole fraction): 0.000111

* * *

# conditionParameters: in methanol, 288.15 K

chemicalSmiles: CC1(C)COP(=O)(Oc2cc(OP3(=O)OCC(C)(C)CO3)cc(OP3(=O)OCC(C)(C)CO3)c2)OC1
solubility (mole fraction): 0.000423

* * *

# conditionParameters: in methanol, 308.15 K

chemicalSmiles: CC1(C)COP(=O)(Oc2cc(OP3(=O)OCC(C)(C)CO3)cc(OP3(=O)OCC(C)(C)CO3)c2)OC1
solubility (mole fraction): 0.000748

* * *

# conditionParameters: in dichloromethane, 298.15 K
propertyName: solubility (mole fraction)

chemicalSmiles: CC1(C)COP(=O)(Oc2cc(OP3(=O)OCC(C)(C)CO3)cc(OP3(=O)OCC(C)(C)CO3)c2)OC1
recordedResult: 0.00673

* * *

# conditionParameters: in acetone, 318.15 K
propertyName: solubility (mole fraction)

chemicalSmiles: CC1(C)COP(=O)(Oc2cc(OP3(=O)OCC(C)(C)CO3)cc(OP3(=O)OCC(C)(C)CO3)c2)OC1
recordedResult: 0.000924

* * *

# conditionParameters: in acetonitrile, 303.15 K

chemicalSmiles: CC1(C)COP(=O)(Oc2cc(OP3(=O)OCC(C)(C)CO3)cc(OP3(=O)OCC(C)(C)CO3)c2)OC1
solubility (mole fraction): 0.00158

* * *

# conditionParameters: in chloroform, 293.15 K

chemicalSmiles: CC1(C)COP(=O)(Oc2cc(OP3(=O)OCC(C)(C)CO3)cc(OP3(=O)OCC(C)(C)CO3)c2)OC1
solubility (mole fraction): 0.00634

* * *

# conditionParameters: in 1,4-dioxane, 303.15 K
propertyName: solubility (mole fraction)

chemicalSmiles: CC1(C)COP(=O)(Oc2cc(OP3(=O)OCC(C)(C)CO3)cc(OP3(=O)OCC(C)(C)CO3)c2)OC1
recordedResult: 0.000127

* * *

# conditionParameters: in acetone, 308.15 K
propertyName: solubility (mole fraction)

chemicalSmiles: CC1(C)COP(=O)(Oc2cc(OP3(=O)OCC(C)(C)CO3)cc(OP3(=O)OCC(C)(C)CO3)c2)OC1
propertyName: solubility (mole fraction)
recordedResult: 0.000718

* * *

# conditionParameters: in chloroform, 298.15 K
propertyName: solubility (mole fraction)

chemicalSmiles: CC1(C)COP(=O)(Oc2cc(OP3(=O)OCC(C)(C)CO3)cc(OP3(=O)OCC(C)(C)CO3)c2)OC1
propertyName: solubility (mole fraction)
recordedResult: 0.00713

// data source = BigSolDB 2.1
